Quick reference: TGI of the listed items.
Tested on: RPMI-8226 leukemia
PROCEDURE_TEXT: NCI tumour cell line growth inhibition, 48 h
Square brackets hold non-standard residues; d marks the D form. Peptide text beside a SMILES is read from it. Phe(4-NO2) = N[CH](Cc1ccc([N+](=O)[O-])cc1)C(=O)O

In the examples that follow, each entry is paired with its recorded TGI.
COMPOUND: NC(N)=NC(N)=Nc1ccc(S(N)(=O)=O)cc1
ASSAYED_SYSTEM: RPMI-8226 leukemia
RESULT: > 100 µM

COMPOUND: COc1ccc(-c2c3c(nc4[nH]c(=S)[nH]c(=S)c24)CCCC3)cc1OC
ASSAYED_SYSTEM: RPMI-8226 leukemia
RESULT: > 100 µM

COMPOUND: COC(=O)CCC(NC(=O)C(CCC(=O)OC)NC(=O)C(CCC(=O)OC)NC(=O)C(CCC(=O)OC)NC(=O)C(CCC(=O)OC)NC(=O)C(Cc1ccc([N+](=O)[O-])cc1)NC(=O)C(CCC(=O)OC)NC(=O)C(CCC(=O)OC)NC(=O)C(CCC(=O)OC)NC(=O)C(CCC(=O)OC)NC(=O)C(CCC(=O)OC)NC(C)=O)C(N)=O (stereo unspecified) (Ac-E(OMe)E(OMe)E(OMe)E(OMe)E(OMe)[Phe(4-NO2)]E(OMe)E(OMe)E(OMe)E(OMe)E(OMe)-NH2; configuration not given here)
ASSAYED_SYSTEM: RPMI-8226 leukemia
RESULT: > 100 µM

Returns the measured TGI for the input compound. Input: `CN1CCN(c2ccc(-c3cccc(CN4CCOCC4)c3)cc2NC(=O)c2c[nH]c(=O)cc2C(F)(F)F)CC1`
> 100 µM

Returns the measured TGI for the input compound. Input: `COC(=O)[C@H](Cc1cn(C)cn1)NC(=O)[C@@H](NC(=O)Nc1cc(C(F)(F)F)cc(C(F)(F)F)c1)C(C)(C)C`
> 10 µM

Returns the measured TGI for the input compound. Input: `CCC(C)(C)NS(=O)(=O)c1ccccc1`
> 100 µM

Returns the measured TGI for the input compound. Input: `COc1ccc(NC(=S)Nc2c(C)n(C)n(-c3ccccc3)c2=O)cc1`
> 100 µM

Returns the measured TGI for the input compound. Input: `Cc1ccc(-c2cc(=O)c3cc(C)c(C)c(C(=O)O)c3o2)cc1[N+](=O)[O-]`
> 100 µM

Returns the measured TGI for the input compound. Input: `CCOc1ccc(N=Cc2ccc3ccccc3n2)cc1`
> 100 µM

====

Test system: SK-MEL-28 melanoma
PROCEDURE_TEXT: NCI tumour cell line growth inhibition, 48 h
ENDPOINT: TGI

Returns the measured TGI for the input compound. Input: COc1ccc(-c2nc(SC)n(C3OC(COC(C)=O)C(OC(C)=O)C(OC(C)=O)C3OC(C)=O)c(=O)c2C#N)cc1 (stereo unspecified)
> 100 µM

Returns the measured TGI for the input compound. Input: COC(=O)C1SC[C@H]2C(=O)N(c3ccccc3)C(=O)N12 (stereo partly specified)
> 100 µM

Returns the measured TGI for the input compound. Input: CC1(C)/C(=N\Nc2ccc([N+](=O)[O-])cc2[N+](=O)[O-])C2CCC1C2 (stereo unspecified)
> 100 µM

Returns the measured TGI for the input compound. Input: FC(F)(F)C1(c2ccccc2)SCc2nc3ccccc3n21 (stereo unspecified)
> 100 µM

Returns the measured TGI for the input compound. Input: `COC(=O)[C@]1(Cc2ccc3ccccc3c2)CCCCCCN1C(=O)c1ccccc1`
> 52.1 µM

Returns the measured TGI for the input compound. Input: Brc1ccc(C2CC3(c4ccccc4)ON=C(c4ccccc4)N3c3ccccc3S2)cc1 (stereo unspecified)
> 100 µM

Origin of values: PubChem BioAssay (NCI)
